Where do the numbers come from? From patent US8338414B2.

- Method notes: Test for measuring blood level
- Type: in vivo
- Test context: mouse, serum; BDF1 male mice, 200 mg/kg oral, one hour after the administration
Quick list: concentration at 1 h per entry.
Write the answer as a number in ng/mL, unit excluded.

QUERY: Give reported concentration at 1 h value for "COc1cccc2c1nc(C(F)F)n2-c1nc(N2CCOCC2)cc(N2CCOC(C)(C)C2)n1"
RESULT: 7170

QUERY: Return the recorded concentration at 1 h value; entry: COc1cccc2c1nc(C(F)F)n2-c1nc(N2CCOCC2)cc(N2CCO[C@@H](C)[C@H]2C)n1 (relative stereo)
RESULT: 4760

QUERY: State, in one line, measured concentration at 1 h of "CC(=O)N1CCN(c2nc(N3CCOCC3)nc(-n3c(C(F)F)nc4ccccc43)n2)CC1"
RESULT: 16100

Others:
QUERY: Supply recorded concentration at 1 h for "CCOc1cccc2c1nc(C(F)F)n2-c1nc(N2CCOCC2)cc(N2CCOC(C)(C)C2)n1" here.
RESULT: 5910
